Listed molecules paired with reported pIC50
Biological target: NLRP3 (Homo sapiens (Human), UniProt Q96P20)
Sequence (Q96P20 whole entry): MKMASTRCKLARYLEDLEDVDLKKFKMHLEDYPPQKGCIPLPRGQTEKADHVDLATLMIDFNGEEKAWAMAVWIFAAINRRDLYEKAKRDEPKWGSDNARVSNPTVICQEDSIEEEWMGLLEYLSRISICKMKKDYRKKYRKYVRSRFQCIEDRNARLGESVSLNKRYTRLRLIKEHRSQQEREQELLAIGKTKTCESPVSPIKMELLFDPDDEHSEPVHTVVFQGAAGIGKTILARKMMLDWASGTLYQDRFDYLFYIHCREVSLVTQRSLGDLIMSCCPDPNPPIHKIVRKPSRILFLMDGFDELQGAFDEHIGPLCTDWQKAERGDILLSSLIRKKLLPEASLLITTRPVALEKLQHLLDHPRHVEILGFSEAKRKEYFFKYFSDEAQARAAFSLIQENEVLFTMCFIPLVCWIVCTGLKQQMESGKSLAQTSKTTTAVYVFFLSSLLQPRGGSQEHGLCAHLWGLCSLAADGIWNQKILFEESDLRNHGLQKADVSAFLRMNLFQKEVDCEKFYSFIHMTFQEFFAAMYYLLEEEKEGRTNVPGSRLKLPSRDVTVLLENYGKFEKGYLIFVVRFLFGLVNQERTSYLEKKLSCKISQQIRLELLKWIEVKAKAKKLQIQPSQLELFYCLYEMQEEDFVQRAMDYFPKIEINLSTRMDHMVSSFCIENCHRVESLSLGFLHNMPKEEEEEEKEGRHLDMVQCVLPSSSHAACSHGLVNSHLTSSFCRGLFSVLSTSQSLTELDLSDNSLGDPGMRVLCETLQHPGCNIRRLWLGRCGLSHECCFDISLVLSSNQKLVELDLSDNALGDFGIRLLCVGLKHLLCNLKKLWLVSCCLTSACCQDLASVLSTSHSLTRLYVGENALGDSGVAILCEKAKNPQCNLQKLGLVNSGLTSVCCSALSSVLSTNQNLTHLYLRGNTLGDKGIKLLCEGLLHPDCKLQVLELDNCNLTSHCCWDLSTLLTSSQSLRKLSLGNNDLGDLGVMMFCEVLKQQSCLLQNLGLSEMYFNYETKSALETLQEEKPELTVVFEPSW
Experiment: Human whole blood IL1β release assay (LPS + nigericin)
Format: cell-based
Conditions: human whole blood, 1 μg/ml LPS, nigericin, IL-1β release; read-out: HWB IC50
pIC50: −log10 of the molar value. Counter-ions that a name gives are not always drawn.

Some entries whose results are on file:
molecule="O=C(Nc1c2c(cc3c1CCC3)CCC2)NS(=O)(=O)C1CN(C2CCOC2)C1 (stereo not drawn) [Example 121, potassium salt]" assay_target="NLRP3 (Homo sapiens (Human), UniProt Q96P20)" measurement_kind=pIC50 value_measured="> 6.00"
molecule="CC(O)CN1CC(S(=O)(=O)NC(=O)Nc2c3c(cc4c2CCC4)CCC3)C1 (stereo not drawn) [Example 137, potassium salt]" assay_target="NLRP3 (Homo sapiens (Human), UniProt Q96P20)" measurement_kind=pIC50 value_measured="5.00 to 6.00"
molecule="COC(=O)N1CCC(S(=O)(=O)NC(=O)Nc2c3c(cc4c2CCC4)CCC3)CC1 [Example 13, potassium salt]" assay_target="NLRP3 (Homo sapiens (Human), UniProt Q96P20)" measurement_kind=pIC50 value_measured="< 5.00"
molecule="[N-]=[N+]=NCCN1CC(S(=O)(=O)NC(=O)Nc2c3c(cc4c2CCC4)CCC3)C1 [Example 95, potassium salt]" assay_target="NLRP3 (Homo sapiens (Human), UniProt Q96P20)" measurement_kind=pIC50 value_measured="5.00 to 6.00"
molecule="CCN1CCC(S(=O)(=O)NC(=O)Nc2c3c(cc4c2CCC4)CC=C3)CC1 [Example 189, potassium salt]" assay_target="NLRP3 (Homo sapiens (Human), UniProt Q96P20)" measurement_kind=pIC50 value_measured="5.00 to 6.00"
molecule="CN1CCC(S(=O)(=O)NC(=O)Nc2c3c(cc4c2CCC4)CCC3)CC1 [Example 1, potassium salt]" assay_target="NLRP3 (Homo sapiens (Human), UniProt Q96P20)" measurement_kind=pIC50 value_measured="5.00 to 6.00"
molecule="Cn1ccc(CN2CC(S(=O)(=O)NC(=O)Nc3c4c(cc5c3CCC5)CCC4)C2)cc1=O [Example 141, potassium salt]" assay_target="NLRP3 (Homo sapiens (Human), UniProt Q96P20)" measurement_kind=pIC50 value_measured="5.00 to 6.00"
molecule="O=C(Nc1c2c(cc3c1CCC3)CCC2)NS(=O)(=O)C1CCN(C(=O)C2CC2)CC1 [Example 7, potassium salt]" assay_target="NLRP3 (Homo sapiens (Human), UniProt Q96P20)" measurement_kind=pIC50 value_measured="5.00 to 6.00"

For the next question, use this molecule.
Query pIC50 on NLRP3 (Homo sapiens (Human), UniProt Q96P20) for COc1cc(-c2ccc3c(c2NC(=O)NS(=O)(=O)C2CN(C4CCC4)C2)CCC3)ccn1
> 6.00

---

Target: UniProtKB Q96P20
Assay: Human whole blood IL1β release assay (LPS + nigericin)
Assay type: cell-based
Conditions: human whole blood, 1 μg/ml LPS, nigericin, IL-1β release; read-out: HWB IC50
pIC50: −log10 of the molar value. Counter-ions that a name gives are not always drawn.
Below, each entry is listed alongside its reported pIC50.

compound="O=C(Nc1c2c(cc3c1CCC3)CCC2)NS(=O)(=O)C1CN(CCO)C1 [Example 152, potassium salt]" measurement_kind=pIC50 value_measured="> 6.00"
compound="COc1cc(-c2cc(F)cc(C(C)C)c2NC(=O)NS(=O)(=O)c2ccc(=O)n(C(C)C)c2)ccn1 [Example 173]" measurement_kind=pIC50 value_measured="> 6.00"
compound="O=C(Nc1c2c(cc3c1CCC3)CCC2)NS(=O)(=O)C1CCCN(CCF)C1 (stereo not drawn) [Example 34, potassium salt]" measurement_kind=pIC50 value_measured="5.00 to 6.00"
compound="C#CCN1CC(S(=O)(=O)NC(=O)Nc2c3c(cc4c2CCC4)CCC3)C1 [Example 133, potassium salt]" measurement_kind=pIC50 value_measured="> 6.00"
compound="O=C(Nc1c2c(cc3c1CCC3)CCC2)NS(=O)(=O)C1CN(CC2CCC2)C1 [Example 126, potassium salt]" measurement_kind=pIC50 value_measured="5.00 to 6.00"
compound="CCC(C)N1CC(S(=O)(=O)NC(=O)Nc2c3c(cc4c2CCC4)CCC3)C1 (stereo not drawn) [Example 122, potassium salt]" measurement_kind=pIC50 value_measured="> 6.00"
compound="CN1CC(S(=O)(=O)NC(=O)Nc2c3c(cc4c2CCC4)CCC3)C1 [Example 49, potassium salt]" measurement_kind=pIC50 value_measured="> 6.00"
compound="O=C(Nc1c2c(cc3c1CCC3)CCC2)NS(=O)(=O)C1CN(CC2COC2)C1 [Example 101, potassium salt]" measurement_kind=pIC50 value_measured="> 6.00"
compound="O=C(Nc1c2c(cc3c1CCC3)CCC2)NS(=O)(=O)C1CN(CCCCO)C1 [Example 138, potassium salt]" measurement_kind=pIC50 value_measured="> 6.00"
compound="O=C(Nc1c2c(cc3c1CCC3)CCC2)NS(=O)(=O)C1CN(Cc2cncnc2)C1 [Example 125, potassium salt]" measurement_kind=pIC50 value_measured="5.00 to 6.00"

Note: attention shifts to another entry.
Recorded pIC50 for O=C(Nc1c2c(cc3c1CCC3)CCC2)NS(=O)(=O)C1CCNCC1 [Example 4, potassium salt] with UniProtKB Q96P20, please?
5.00 to 6.00
